Value source: patent US20130178453A1

target-desc: hCB2 (Homo sapiens)
protocol-details: hCB2 cAMP agonist assay (HEK-293 cells)
Assay type: cell-based
study-conditions: cAMP agonist, HEK, 96-well; read-out: hCB2 EC50 (cAMP ag, nM, HEK (96-well))
Please provide measured EC50 for the entries that follow.

CCCn1c(C)c(C(=O)c2cc3ccsc3n2CCC)c2c1CCCC2 ... < 100 nM
CCCn1c(C(=O)c2c[nH]c3ccccc23)cc2ccsc21 ... 100 to 1000 nM
CCCn1c(C(=O)c2c3c(n(CCN4CCOCC4)c2C)CCCC3)cc2ccsc21 ... < 100 nM
CCn1c(C(=O)c2c(C)n(CCCNS(C)(=O)=O)c3ccccc23)cc2ccsc21 ... < 100 nM
CCn1c(C(=O)c2c(C)n(CCC(=O)O)c3ccccc23)cc2ccsc21 ... 100 to 1000 nM

Each compound below has a reported value. Please supply its EC50.
1. CCCn1c(C)c(C(=O)c2cc3ccsc3n2CC2CCOCC2)c2ccccc21
2. CCn1c(C(=O)c2c(C)n(CCN3CCOC3=O)c3ccccc23)cc2ccsc21

1. < 100 nM
2. < 100 nM

Each compound below has a reported value. Please supply its EC50.
1. CCCn1c(C)c(C(=O)c2cc3ccsc3n2CC)c2c1CCCCC2
2. CCCn1c(C(=O)c2c(C)[nH]c3ccccc23)cc2ccsc21
3. C=Cn1c(C)c(C(=O)c2cc3ccsc3n2CC)c2ccccc21
4. CCCn1c(C(=O)c2c(C)n(C)c3ccccc23)cc2ccsc21

1: < 100 nM; 2: 100 to 1000 nM; 3: < 100 nM; 4: 100 to 1000 nM

---

target-desc: hCB1 (Homo sapiens, UniProt P21554)
Sequence (P21554 whole entry): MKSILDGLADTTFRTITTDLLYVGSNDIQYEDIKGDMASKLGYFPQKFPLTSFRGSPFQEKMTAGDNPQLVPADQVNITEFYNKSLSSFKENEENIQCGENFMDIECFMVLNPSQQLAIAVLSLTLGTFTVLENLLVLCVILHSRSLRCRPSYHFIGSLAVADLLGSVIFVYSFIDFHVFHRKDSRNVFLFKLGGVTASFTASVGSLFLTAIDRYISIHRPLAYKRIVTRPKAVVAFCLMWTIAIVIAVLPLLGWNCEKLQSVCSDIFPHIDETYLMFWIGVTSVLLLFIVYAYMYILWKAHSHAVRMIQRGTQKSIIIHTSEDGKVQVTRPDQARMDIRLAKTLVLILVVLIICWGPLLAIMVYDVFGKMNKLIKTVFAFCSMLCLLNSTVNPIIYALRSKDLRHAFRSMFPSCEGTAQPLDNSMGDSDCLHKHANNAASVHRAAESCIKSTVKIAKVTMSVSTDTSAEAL
protocol-details: hCB1 radioligand binding assay ([3H]-CP 55,940 displacement)
study-conditions: hCB1 IC50 (CP displ, nM, HEK), HEK membranes
quantity-name: IC50

Completed entries (count: 5):
CCCn1c(C)c(C(=O)c2cc3ccsc3n2CCC)c2c1CCC(C)(C)C2 ... 100 to 1000 nM
CCCn1c(C)c(C(=O)c2cc3ccsc3n2CCC)c2cc(OC)ccc21 ... 100 to 1000 nM
CCCn1c(C(=O)c2cn(C)c3ccccc23)cc2ccsc21 ... 100 to 1000 nM
CCCCCn1c(C)c(C(=O)c2cc3ccsc3n2CCC)c2ccccc21 ... < 100 nM
CCCn1cc(C(=O)c2cc3ccsc3n2CC)c2cccnc21 ... 1000 to 10000 nM

Each compound below has a reported value. Please supply its IC50.
1. CCCn1c(C(=O)c2c(C)n(CCC)c3sccc23)cc2ccccc21
2. CCCn1c(C)c(C(=O)c2cc3ccsc3n2CC)c2c1CCCCC2
3. CCCn1cc(C(=O)c2cc3ccsc3n2C)c2ccccc21
4. CCCn1c(C(=O)c2c(C)n(C)c3ccccc23)cc2ccsc21

100 to 1000 nM
1000 to 10000 nM
100 to 1000 nM
> 10000 nM

Each compound below has a reported value. Please supply its IC50.
1. CCn1c(C(=O)c2c[nH]c3ccccc23)cc2ccsc21
2. CCCn1c(C)c(C(=O)c2cccc3ccccc23)c2sccc21
3. CCCn1c(C)c(C(=O)c2cc3ccsc3n2CCC)c2c1CCCC2
4. CCn1c(C(=O)c2c(C)n(CCCCl)c3ccccc23)cc2ccsc21

1. > 10000 nM
2. 1000 to 10000 nM
3. 1000 to 10000 nM
4. 100 to 1000 nM

Each compound below has a reported value. Please supply its IC50.
1. CCCn1c(C)c(C(=O)c2cc3cc(Cl)sc3[nH]2)c2c1CCCC2
2. CCCn1c(C)c(C(=O)c2cc3ccsc3n2CCC)c2c1CCCCC2
3. CCCn1c(C(=O)c2c[nH]c3ccccc23)cc2ccsc21
4. Cc1c(C(=O)c2cc3ccsc3[nH]2)c2ccccc2n1CCN1CCOCC1
5. C=CCn1cc(C(=O)c2cc3ccsc3n2CC)c2cnccc21
6. CCCn1cc(C(=O)c2cc3ccsc3n2CC)c2ccccc21

> 10000 nM
100 to 1000 nM
> 10000 nM
1000 to 10000 nM
> 10000 nM
100 to 1000 nM

---

target-desc: hCB2 (Homo sapiens, UniProt P34972)
Sequence (P34972 whole entry): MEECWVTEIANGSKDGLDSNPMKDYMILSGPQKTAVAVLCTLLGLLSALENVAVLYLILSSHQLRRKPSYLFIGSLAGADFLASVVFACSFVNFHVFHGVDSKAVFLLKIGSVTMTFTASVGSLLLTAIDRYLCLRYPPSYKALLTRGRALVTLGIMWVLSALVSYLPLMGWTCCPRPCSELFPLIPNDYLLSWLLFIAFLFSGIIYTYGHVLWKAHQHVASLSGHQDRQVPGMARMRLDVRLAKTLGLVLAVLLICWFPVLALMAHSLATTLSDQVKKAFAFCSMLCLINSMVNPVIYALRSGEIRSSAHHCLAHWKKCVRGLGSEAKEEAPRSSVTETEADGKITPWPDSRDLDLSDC
protocol-details: hCB2 cAMP agonist assay (HEK-293 cells)
Type: cell-based
quantity-name: EC50

Completed entries (count: 8):
CCCn1c(C)c(C(=O)c2cc3ccsc3n2CCC)c2ccccc21 [Compound I-78] ... < 100 nM
CCCn1c(C)c(C(=O)c2cc3cc(Cl)sc3[nH]2)c2ccccc21 [Compound I-48] ... 100 to 1000 nM
CCCn1c(C)c(C(=O)c2cc3ccsc3n2C)c2ccccc21 [Compound I-55] ... < 100 nM
CCCn1cc(C(=O)c2cc3ccsc3n2CCC)c2ccccc21 [Compound I-62] ... < 100 nM
CCCn1c(C(=O)c2c(C)n(CCN3CCCCC3)c3ccccc23)cc2ccsc21 [Compound I-59] ... < 100 nM
CCCn1c(C)c(C(=O)c2cc3ccsc3s2)c2ccccc21 [Compound I-46] ... 100 to 1000 nM
CCCn1c(C)c(C(=O)c2cc3sccc3[nH]2)c2ccccc21 [Compound I-81] ... 100 to 1000 nM
CCCn1c(C(=O)c2c(C)n(CCN3CCOCC3)c3ccccc23)cc2ccsc21 [Compound I-73] ... < 100 nM

Each compound below has a reported value. Please supply its EC50.
1. CCCn1cc(C(=O)c2cc3ccsc3n2CC)c2cnccc21 [Compound I-22]
2. CCCn1c(C)c(C(=O)c2cc3cc(C)n(CCC)c3s2)c2ccccc21 [Compound I-56]

1. < 100 nM
2. < 100 nM

---

target-desc: hCB2 (Homo sapiens)
protocol-details: hCB2 GTPγS agonist assay (HEK-293 membranes)
Assay type: biochemical
study-conditions: GTPγS agonist, HEK membranes; read-out: hCB2 EC50 (GTPyS ag, nM, HEK)
Please provide measured EC50 for the entries that follow.

CCCn1c(C(=O)c2c3c(n(CCN4CCOCC4)c2C)CCCC3)cc2ccsc21 [Compound I-79] ... < 100 nM
CCCn1c(C(=O)c2c[nH]c3ncccc23)cc2ccsc21 [Compound I-43] ... 100 to 1000 nM
CCCn1c(C(=O)c2c(C)n(C)c3ccccc23)cc2ccsc21 [Compound I-53] ... 100 to 1000 nM
CCCn1c(C)c(C(=O)c2cc3ccsc3n2CC)c2c1CCCCC2 [Compound I-87] ... < 100 nM
CCn1c(C(=O)c2c(C)n(CCN3CCOC3=O)c3ccccc23)cc2ccsc21 [Compound I-25] ... < 100 nM

Each compound below has a reported value. Please supply its EC50.
1. CCCn1c(C)c(C(=O)c2cc3ccsc3n2CCC)c2c1CCCCC2 [Compound I-80]
2. CCCn1c(C)c(C(=O)c2cc3cc(Cl)sc3[nH]2)c2c1CCCC2 [Compound I-76]

< 100 nM
100 to 1000 nM

---

target-desc: hCB1 (Homo sapiens, UniProt P21554)
protocol-details: hCB1 cAMP agonist assay (HEK-293 cells)
Format: cell-based
study-conditions: cAMP agonist, HEK, 96-well; read-out: hCB1 EC50 (cAMP ag, nM, HEK (96-well))
quantity-name: EC50

Completed entries (count: 5):
CCn1c(C(=O)c2cn(CCCNS(C)(=O)=O)c3ccccc23)cc2ccsc21 ... 100 to 1000 nM
CCn1c(C(=O)c2c3c(n(CC4CCOCC4)c2C)CCCC3)cc2ccsc21 ... 100 to 1000 nM
CCCn1c(C(=O)c2c(C)[nH]c3sccc23)cc2ccsc21 ... < 100 nM
CCn1c(C(=O)c2c(C)n(CCN3CCOC3=O)c3ccccc23)cc2ccsc21 ... 1000 to 10000 nM
CCCn1c(C(=O)c2cn(C)c3ccccc23)cc2ccsc21 ... 100 to 1000 nM

Each molecule below has a reported value. Please supply its EC50.
1. CCCn1c(C(=O)c2c(C)n(CCC)c3sccc23)cc2ccsc21
2. CCCn1c(C(=O)c2cn(CC)c3ccccc23)cc2ccsc21
3. CCCn1c(C)c(C(=O)c2cc3ccsc3n2CCC)c2c1CCCCC2

< 100 nM
100 to 1000 nM
1000 to 10000 nM

---

target-desc: hCB2 (Homo sapiens, UniProt P34972)
protocol-details: hCB2 radioligand binding assay ([3H]-CP 55,940 displacement)
study-conditions: hCB2 IC50 (CP displ, nM, HEK), HEK membranes
quantity-name: IC50

Completed entries (count: 5):
CCn1c(C(=O)c2cn(CCCNS(C)(=O)=O)c3ccccc23)cc2ccsc21 [Compound I-28] ... < 100 nM
CCOC(=O)CCn1c(C)c(C(=O)c2cc3ccsc3n2CC)c2ccccc21 [Compound I-26] ... 100 to 1000 nM
CCCn1cc(C(=O)c2cc3ccsc3n2CC)c2ccccc21 [Compound I-70] ... < 100 nM
CCCn1c(C(=O)c2cn(CC)c3ccccc23)cc2ccsc21 [Compound I-42] ... < 100 nM
CCCn1cc(C(=O)c2cc3ccsc3n2CC)c2ccncc21 [Compound I-23] ... < 100 nM

Each molecule below has a reported value. Please supply its IC50.
1. CCCn1c(C(=O)c2c(C)n(CCC)c3sccc23)cc2ccccc21 [Compound I-14]
2. CCCn1c(C)c(C(=O)c2cc3cc(C)n(CCC)c3s2)c2ccccc21 [Compound I-56]
3. CCCn1c(C(=O)c2c(C)n(CCN3CCOCC3)c3sccc23)cc2ccccc21 [Compound I-11]
4. CCCn1c(C)c(C(=O)c2cc3occc3[nH]2)c2ccccc21 [Compound I-71]

["100 to 1000 nM", "< 100 nM", "< 100 nM", "1000 to 10000 nM"]
